Data origin, for the record: patent US20260283990A1

ASSAY_OVERVIEW: Pharmacokinetic study in C57BL/6J mice (plasma and tissues)
Assay type: in vivo
CONDITION_CONTEXT: mouse, in vivo, ip, 50 mg/kg
OBSERVABLE: AUC(0-t)

• O=C(CCCCCCC(=O)Nc1ccccc1)NO [Vorinostat, vorinostat] = 632 ng·h/mL

Continue with the next molecule.
Please fill in: AUC(0-t) reported for O=C(O)CCC(=O)Nc1ccccc1 [RVL002, succinanilic acid] = 11800 ng·h/mL
